experimental target: human Retinoid X Receptor beta (RXRb), RXRB (gene 6257)
method notes: ATG_RXRb_TRANS: Attagene TRANS-FACTORIAL HepG2 Assay for human Retinoid X Receptor beta (RXRb) (AID 2283013)
Inconclusive results are not listed. Active and inactive are the calls of the source. Rule for the calls: active = hit-call score of the fitted dose curve at least 0.9, where 1 is the maximum; inconclusive = response in the unintended direction; inactive = score below 0.9.
Your answer must be one of the following: active, inactive

Examples with answers:
[
  {
    "compound": "O=C(O)[C@H](O)[C@@H](O)C(=O)O",
    "class assignment": "inactive"
  },
  {
    "compound": "CCN(CC)C(=S)SSC(=S)N(CC)CC",
    "class assignment": "inactive"
  },
  {
    "compound": "c1ccc(C(O[C@@H]2CCCN(CCc3ccc4c(c3)OCO4)C2)c2ccccc2)cc1",
    "class assignment": "inactive"
  }
]

Data request: Dear all, I need the recorded test outcome for FC(F)(F)COC(OCC(F)(F)F)OCC(F)(F)F , thank you.
Data returned: inactive

Data request: Could you check what this test reported for O=S(=O)(O)c1ccc(N=Nc2c(O)ccc3cc(S(=O)(=O)O)ccc23)cc1 ?
Data returned: inactive

Data request: Hello, I am checking results. What call was entered for OC(O)(C(F)C(O)(O)C(F)(F)F)C(F)(F)F ?
Data returned: inactive

Data request: Which result was noted for this compound in the test: OCCOCCOCCO
Data returned: inactive

Data request: Test call for this compound, please: OCc1ccccc1
Data returned: active

Data request: Write down the call the test reported for this compound. Item: COS(C)(=O)=O
Data returned: inactive

Data request: Hi, sorry to bother you, what did the test record for OC(Cn1cncn1)(Cn1cncn1)c1ccc(F)cc1F ?
Data returned: inactive

Data request: # fetch the recorded call for FC(F)=C(F)C(F)(F)C(F)(F)C(F)(F)C(F)(F)C(F)(F)C(F)(F)F here
Data returned: inactive

Data request: Hello, I am checking results. What call was entered for CCCC(CCC)C(=O)O ?
Data returned: inactive

Data request: Which outcome was assigned to CC[C@H](C)C(=O)O[C@H]1C[C@H](O)C=C2C=C[C@H](C)[C@H](CC[C@@H](O)C[C@@H](O)CC(=O)O)[C@H]21 in this test?
Data returned: inactive

----------
Read-out: Cytochrome P450 2C19 (Homo sapiens)
method notes: LTEA_HepaRG_CYP2C19: Life Technologies and Expression Analysis (LTEA) Assay for CYP2C19 using HepaRG (AID 2283482)
condition description: mRNA level, 48 h; actives raise or lower the signal
The source made the active and inactive calls. How the source made its calls: active means hit-call score of the fitted dose curve at least 0.9, where 1 is the maximum; inactive means score below 0.9.
Write down one outcome, taken from active, inactive

[
  {
    "compound": "OC[C@H]1O[C@@](CO)(O[C@H]2O[C@H](CO)[C@@H](O)[C@H](O)[C@H]2O)[C@@H](O)[C@@H]1O",
    "class assignment": "inactive"
  }
]

Data request: What call does the record list for Cc1ncc([C@@H](CCCCCCc2ccc3c(n2)NCCC3)CC(=O)O)cn1 ?
Data returned: inactive

Data request: Dear colleague, could you share the recorded outcome for O=c1[nH]cnc2c1ncn2[C@H]1CC[C@@H](CO)O1 when you have a moment?
Data returned: inactive

Data request: Look up the recorded call for NC(=O)NN=Cc1ccc([N+](=O)[O-])o1 in this test.
Data returned: inactive

Data request: Could you check what this test reported for CC1(C)C(=O)N(Cl)C(=O)N1Cl ?
Data returned: inactive

Data request: Please indicate how the test categorized CCOc1ccc2[nH]cc(C(=O)NCc3ccccc3)c(=O)c2n1 .
Data returned: inactive

Data request: Hi, sorry to bother you, what did the test record for CC(C)c1nnc2ccc(-c3ocnc3-c3cc(F)ccc3F)cn12 ?
Data returned: active

----------
experimental target: human Opioid Receptor Mu (Opiate Mu), OPRM1 (gene 4988)
method notes: NVS_GPCR_hOpiate_mu: NovaScreen (NVS) G Protein-Coupled Receptor Assay for human Opioid Receptor Mu (Opiate Mu) (AID 2283290);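 note: hits lower bound tracer signal versus DMSO meaning displacement of the ligand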
Experimental: NVS_GPCR_hOpiate_mu is a biochemical, single-readout assay that uses extracted gene-proteins from CHO in a cell-free assay. Measurements were taken 2.5 hours after chemical dosing in a 96-well plate.NVS_GPCR_hOpiate_mu is one of one assay component(s) measured or calculated from the NVS_GPCR_hOpiate_mu assay. […] This assay endpoint, NVS_GPCR_hOpiate_mu, was analyzed in the positive analysis fitting direction relative to DMSO as the negative control and baseline of activity. […]
Records with an inconclusive call do not appear. Active and inactive are the calls of the source. The calls were made as follows: active = hit-call score of the fitted dose curve at least 0.9, where 1 is the maximum; inconclusive = response in the unintended direction; inactive = score below 0.9.
Please state which outcome applies, choosing from 1 = active, -1 = inactive

Data request: Look up the recorded call for CCCCCCCCCC in this test.
Data returned: -1

Data request: Check the results log: what was the call for CCn1nc(C)c2c1C(=O)NCC(c1ccc(O)cc1)=N2 ?
Data returned: -1

Data request: Look up the recorded call for c1ccc(C(O[C@@H]2CCCN(CCc3ccc4c(c3)OCO4)C2)c2ccccc2)cc1 in this test.
Data returned: 1

Data request: Outcome logged for C=CN1CCCC1=O in this assay:
Data returned: -1

Data request: Hi, do you know how c1ccc2cc3ccccc3cc2c1 came out in this test?
Data returned: -1

Data request: Which outcome was entered for the compound CCCCCCCCCCCCCCCCOS(=O)(=O)O in this test?
Data returned: 1

----------
Read-out: NAD(P)H dehydrogenase [quinone] 1 (NQO1), NQO1 (gene 1728)
method notes: LTEA_HepaRG_NQO1: Life Technologies and Expression Analysis (LTEA) Assay for NAD(P)H dehydrogenase [quinone] 1 (NQO1) using HepaRG (AID 2283526)
condition description: mRNA level, 48 h; actives raise or lower the signal
The source made the active and inactive calls. The calls were made as follows: active = hit-call score of the fitted dose curve at least 0.9, where 1 is the maximum; inactive = score below 0.9.
Field 'call' accepts T for active, F for inactive

Worked set:
[
  {
    "molecule": "O=S(=O)(O)c1ccc(N=Nc2c(O)ccc3cc(S(=O)(=O)O)ccc23)cc1",
    "class assignment": "F"
  },
  {
    "molecule": "c1ccc(C(O[C@@H]2CCCN(CCc3ccc4c(c3)OCO4)C2)c2ccccc2)cc1",
    "class assignment": "T"
  },
  {
    "molecule": "CC(=O)c1ccccc1",
    "class assignment": "F"
  },
  {
    "molecule": "NC(=O)N(O)[C@@H]1COc2cc(OCc3ccccc3)ccc21",
    "class assignment": "F"
  },
  {
    "molecule": "NC(N)=O",
    "class assignment": "F"
  },
  {
    "molecule": "Cc1ccc(S(=O)(=O)NC(=O)NN2CCCCCC2)cc1",
    "class assignment": "F"
  }
]

Data request: Which outcome was assigned to CCCCCCCCCCCCCCO in this test?
Data returned: F

Data request: In this assay, the call recorded for O=C(O)c1cccc(C[C@@H]2COc3ccc(OCc4nc5cc(F)ccc5s4)cc3[C@@H]2O)c1 was what?
Data returned: F

Data request: For CCCCCOC(C)=O , what call appears in the results of this test?
Data returned: F

Data request: Recorded test call requested for CCCOc1ccc(S(=O)(=O)N2CCN(CC)CC2)cc1-c1nc2c(CC)n(Cc3ccccn3)nc2c(=O)[nH]1
Data returned: F

Data request: Fill in: this test's call for OC[C@H]1O[C@@](CO)(O[C@H]2O[C@H](CO)[C@@H](O)[C@H](O)[C@H]2O)[C@@H](O)[C@@H]1O is ___
Data returned: F

Data request: Test call for this molecule, please: CNC(C)=O
Data returned: F

----------
Read-out: Monocyte Chemoattractant Protein-1 (MCP1), CCL2 (gene 6347)
method notes: BSK_4H_MCP1: BioMAP Diversity Plus: 4H Assay for Monocyte Chemoattractant Protein-1 (MCP1) Biomarker Activity (AID 2283018)
condition description: primary human endothelial cells (HUVEC); actives raise or lower the signal
Activity calls are given as the source filed them. The calls were made as follows: active = hit-call score of the fitted dose curve at least 0.9, where 1 is the maximum; inactive = score below 0.9.
Outcome (select one): YES for active, NO for inactive

Solved entries:
[
  {
    "compound": "OCCNCCO",
    "class assignment": "NO"
  },
  {
    "compound": "NC(=O)NN=Cc1ccc([N+](=O)[O-])o1",
    "class assignment": "NO"
  },
  {
    "compound": "NCC(F)(F)C(F)(F)C(F)(F)C(F)(F)F",
    "class assignment": "NO"
  },
  {
    "compound": "Cn1c(=O)c2[nH]cnc2n(C)c1=O",
    "class assignment": "NO"
  },
  {
    "compound": "COc1cc2c(c(OC)c1OC)-c1ccc(OC)c(=O)cc1[C@@H](NC(C)=O)CC2",
    "class assignment": "NO"
  }
]

Data request: Please let me know the test result on file for CCCCCCOC(=O)CC(CC(=O)OCCCCCC)(OC(=O)CCC)C(=O)OCCCCCC .
Data returned: NO

Data request: Outcome? OC[C@H]1O[C@@](CO)(O[C@H]2O[C@H](CO)[C@@H](O)[C@H](O)[C@H]2O)[C@@H](O)[C@@H]1O
Data returned: NO

Data request: Any idea what this test logged for OCC(CO)(CO)CO ?
Data returned: NO

Data request: Per the records of this test, what outcome belongs to CCCCOC(=O)c1ccccc1 ?
Data returned: NO

Data request: Fill in: this test's call for O=C(Cl)C(F)(F)C(F)(F)C(F)(F)C(=O)Cl is ___
Data returned: NO

Data request: // return assay outcome for C[Si](C)(C)C(F)(F)C(F)(F)C(F)(F)F
Data returned: NO
